Molecular target: T1, DFNB31_3, Q9P202
T1 sequence (Q9P202 811-907, limits assumed, looked up): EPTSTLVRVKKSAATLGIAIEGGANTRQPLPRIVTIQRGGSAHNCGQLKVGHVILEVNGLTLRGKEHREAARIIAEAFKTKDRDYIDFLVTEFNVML
Assay: holdup assay
Design: key: below the threshold = too weak to quantify, mostly under pKd 3.1 to 4
Details: plain residues with an end cap or a label only (N-terminal biotin on a linker: ado-ado)
result.type: pKd

As a guide, the following entries are already answered.
GET /value?item= QRYPGNQTTC [CCL24, O00175] &field=pKd returns below the threshold

Lab note: PSDSVGKDVF [EGLN1, Q9GZT9] gave pKd of below the threshold

Sure, the documented pKd for ATKDKKITTV [EXOC4, Q96A65] is below the threshold

Lookup result for PAALPESTHM [SLC9A3, P48764] ; measured pKd: below the threshold

Consider ELKAEDEVQI [DCHS2, Q6V1P9] . Its measured pKd is below the threshold

GET /value?item= SGDGKTSVWI [GJC1, P36383] &field=pKd returns below the threshold

Read the next record carefully.
Lab book: pKd of HYPASPDSWV [CTNND2, Q9UQB3] noted as below the threshold
